Reference source for all entries: the supplement of paper PMC10567573

B1: SOAT2 (parent)
chain: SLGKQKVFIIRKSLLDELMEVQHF

- Variants of: B1
- assay-name: protein stability index of a GFP-peptide fusion (GPS, HEK-293T) (PSI 1-6); higher = more stable;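 further: lentivirally expressed fusions sorted by FACS into six bins by GFP to DsRed ratio, PSI derived from sequencing read proportions per bin multiplied by bin number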
- assay-context: c terminus: a fixed tail appended
Listed here: items and their measured protein stability index.
// response body must contain only the number

[[record]]
mutation_descriptor = "V21E"
recorded_value = 1.99

[[record]]
mutation_descriptor = "L18R"
recorded_value = 1.98

[[record]]
mutation_descriptor = "L14T"
recorded_value = 2

[[record]]
mutation_descriptor = "K4Q"
recorded_value = 1.96

[[record]]
mutation_descriptor = "F8Q"
recorded_value = 1.97


Consider now this further variant.
Query: protein stability index; subject: "S13P" 1.99
